Data origin, for the record: ChEMBL document CHEMBL2311356

- Experimental System: Delta-type opioid receptor (Mus musculus)
- Measurement Protocol: Displacement of [3H]DPDPE from delta opioid receptor in mouse whole brain membranes without cerebellum after 1 hr by liquid scintillation counting analysis
Listing of recorded pKi by entry.
Keep in mind that pKi stands for -log10 of concentration in molar terms.

{"Compound Structure String": "CC(C)CN1CC[C@H]2c3c(ccc(O)c3O)C[C@@H]1[C@]2(O)CCCN(C)C(=O)/C=C/c1ccoc1", "pKi": 6.29}
{"Compound Structure String": "CN(CCC[C@]1(O)[C@H]2CCN(C)[C@@H]1Cc1ccc(O)c(O)c12)C(=O)/C=C/c1ccoc1", "pKi": 7.45}

Input: Specify reported pKi for the compound shown: `CCCN1CC[C@H]2c3c(ccc(O)c3O)C[C@@H]1[C@]2(O)CCCN(C)C(=O)/C=C/c1ccoc1`
Output: 6.75

Input: Please list pKi recorded for the compound `CCN1CC[C@H]2c3c(ccc(O)c3O)C[C@@H]1[C@]2(O)CCCN(C)C(=O)/C=C/c1ccoc1`
Output: 6.29

###

Property: Ratio Ki; scope: individual compounds
- Measurement Protocol: Selectivity ratio of Ki for delta opioid receptor in mouse whole brain membranes without cerebellum to Ki for kappa opioid receptor in guinea pig cerebellum
- Type: cell membranes

Input: In one line, give reported Ratio Ki of the entry `CN(CCC[C@]1(O)[C@H]2CCN(C)[C@@H]1Cc1ccc(O)c(O)c12)C(=O)/C=C/c1ccoc1` .
Output: 48.6

Input: Return Ratio Ki for the following compound: `CCCN1CC[C@H]2c3c(ccc(O)c3O)C[C@@H]1[C@]2(O)CCCN(C)C(=O)/C=C/c1ccoc1`
Output: 537

Input: Item `CCN1CC[C@H]2c3c(ccc(O)c3O)C[C@@H]1[C@]2(O)CCCN(C)C(=O)/C=C/c1ccoc1` : provide Ratio Ki
Output: 818

Input: Please give measured Ratio Ki of the following entry: `CC(C)CN1CC[C@H]2c3c(ccc(O)c3O)C[C@@H]1[C@]2(O)CCCN(C)C(=O)/C=C/c1ccoc1`
Output: 872

###

# Lookup of reported pKi keyed by entry
- Experimental System: Mu-type opioid receptor (Mus musculus)
- Sequence (P42866 whole entry): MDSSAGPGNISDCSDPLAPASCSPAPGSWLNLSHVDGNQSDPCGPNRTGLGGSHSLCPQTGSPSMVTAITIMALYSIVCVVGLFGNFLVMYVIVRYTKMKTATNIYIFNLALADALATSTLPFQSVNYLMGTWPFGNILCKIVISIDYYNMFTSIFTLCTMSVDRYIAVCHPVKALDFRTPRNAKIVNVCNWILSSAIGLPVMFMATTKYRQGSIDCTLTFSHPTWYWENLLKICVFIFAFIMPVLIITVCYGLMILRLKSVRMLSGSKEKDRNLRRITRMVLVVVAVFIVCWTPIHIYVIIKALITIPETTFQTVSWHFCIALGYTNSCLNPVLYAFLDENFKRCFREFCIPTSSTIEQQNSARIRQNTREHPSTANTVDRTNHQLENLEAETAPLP
- Measurement Protocol: Displacement of [3H]DAMGO from mu opioid receptor in mouse whole brain membranes without cerebellum after 1 hr by liquid scintillation counting analysis
- Type: cell membranes, Membrane
// pKi here means minus log10 of the molar concentration (mol/L)

{"Compound Structure String": "CC(C)CN1CC[C@H]2c3c(ccc(O)c3O)C[C@@H]1[C@]2(O)CCCN(C)C(=O)/C=C/c1ccoc1", "Experimental System": "Mu-type opioid receptor (Mus musculus)", "Measurement Name": "pKi", "Result Number": 7.34}
{"Compound Structure String": "CCCN1CC[C@H]2c3c(ccc(O)c3O)C[C@@H]1[C@]2(O)CCCN(C)C(=O)/C=C/c1ccoc1", "Experimental System": "Mu-type opioid receptor (Mus musculus)", "Measurement Name": "pKi", "Result Number": 7.72}
{"Compound Structure String": "CN(CCC[C@]1(O)[C@H]2CCN(CCF)[C@@H]1Cc1ccc(O)c(O)c12)C(=O)/C=C/c1ccoc1", "Experimental System": "Mu-type opioid receptor (Mus musculus)", "Measurement Name": "pKi", "Result Number": 8.08}

Input: Find the measured pKi of `CCN1CC[C@H]2c3c(ccc(O)c3O)C[C@@H]1[C@]2(O)CCCN(C)C(=O)/C=C/c1ccoc1` with Mu-type opioid receptor (Mus musculus) as test system.
Output: 7.96

Input: Quote Mu-type opioid receptor (Mus musculus) pKi for entry `CN(CCC[C@]1(O)[C@H]2CCN(C)[C@@H]1Cc1ccc(O)c(O)c12)C(=O)/C=C/c1ccoc1` .
Output: 8.56

###

- Experimental System: Delta-type opioid receptor (Mus musculus, UniProt P32300)
- Sequence (P32300 whole entry): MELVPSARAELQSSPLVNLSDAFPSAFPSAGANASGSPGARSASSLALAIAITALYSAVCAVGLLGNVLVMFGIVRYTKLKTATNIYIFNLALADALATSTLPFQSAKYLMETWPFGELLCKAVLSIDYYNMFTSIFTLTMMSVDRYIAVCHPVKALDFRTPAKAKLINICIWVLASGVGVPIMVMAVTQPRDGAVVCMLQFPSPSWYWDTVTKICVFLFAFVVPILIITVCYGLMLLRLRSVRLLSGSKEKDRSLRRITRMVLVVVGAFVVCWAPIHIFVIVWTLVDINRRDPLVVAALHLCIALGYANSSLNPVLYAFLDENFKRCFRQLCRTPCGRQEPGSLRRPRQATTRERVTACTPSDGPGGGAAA
- Measurement Protocol: Displacement of [3H]DPDPE from delta opioid receptor in mouse whole brain membranes without cerebellum after 1 hr by liquid scintillation counting analysis
- Assay type: cell membranes, Membrane
Measurement Name: Ki

Some molecules with known Ki results, for comparison:
{"Compound Structure String": "CN(CCC[C@]1(O)[C@H]2CCN(CC(F)F)[C@@H]1Cc1ccc(O)c(O)c12)C(=O)/C=C/c1ccoc1", "Experimental System": "Delta-type opioid receptor (Mus musculus, UniProt P32300)", "Result": "> 1000 nM"}
{"Compound Structure String": "CN(CCC[C@]1(O)[C@H]2CCN(CC(F)(F)F)[C@@H]1Cc1ccc(O)c(O)c12)C(=O)/C=C/c1ccoc1", "Experimental System": "Delta-type opioid receptor (Mus musculus, UniProt P32300)", "Result": "> 1000 nM"}

In the following, a different molecule is considered.
Input: Given the molecule `CN(CCC[C@]1(O)[C@H]2CCN(CCF)[C@@H]1Cc1ccc(O)c(O)c12)C(=O)/C=C/c1ccoc1` , write its reported Ki.
Output: > 1000 nM
